The values you see were collected from patent US20200079801A1.

details: HPLC, C 18 reversed phase, 40° C., 0.1% aqueous formic acid and acetonitrile, gradient 10% to 95% acetonitrile

- cpd_smiles: "C[Si](C)(c1ccc(-c2ccccc2)cc1)c1ccccc1Cn1cnc2ccccc21"
  logP: 3.39
- cpd_smiles: "Cc1cc2nc(C)n(Cc3ccccc3[Si](C)(C)c3ccc(-c4ccccc4)cc3)c2cc1C"
  logP: 3.29
- cpd_smiles: "Cc1cc2ncn(Cc3ccccc3[Si](C)(C)c3ccc(-c4ccccc4)cc3)c2cc1C"
  logP: 3.33
- cpd_smiles: "Cc1nc2ccccc2n1Cc1ccccc1[Si](C)(C)c1ccc(-c2ccccc2)cc1"
  logP: 3.18

###

- compound: "C[Si](C)(c1ccccc1)c1ccccc1Cn1cnc2ccccc21 [I.01]"
  chromatographic logP: 2.57
